test system: Saccharomyces cerevisiae; assay: protein stability index of tFT-peptide fusion (C-terminal peptide) (PSI (0-1 scale)); higher = more stable (slower turnover); conditions: genetic background: wild type; temperature: 30 C;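 note: PSI is a weighted mean of sequencing reads over stability bins, variants kept only with over 10 reads, mCherry proximal and sfGFP distal, peptide attached via GGGS linker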
Note to self: values exactly at 0.3 are t. So protein stability index at or above 0.3 is t, below is f.

Problem: Reported protein stability index at or above 0.3? RCTFSFSFPFVL
Solution: t

Problem: Does protein stability index meet or surpass 0.3 for LQSYIFSVRGIS ?
Solution: t

Problem: Please indicate if the recorded protein stability index for FFLSFICVMLCG meets or exceeds 0.3.
Solution: f

Problem: Assess whether reported protein stability index for FGFSFLHLFIFF sits at 0.3 or higher.
Solution: t

Problem: protein stability index >= 0.3 for FNFFFSSVFLLV ?
Solution: f

Problem: In plain terms: is recorded protein stability index at least 0.3 for VLAYFCYVVFVI ?
Solution: f

Problem: Decide: protein stability index of GYRRCCHFLFTL >= 0.3?
Solution: t

Problem: State whether the measured protein stability index reaches 0.3, counting equality as reaching it, for ASCFFLFVLRVF
Solution: f

Problem: # bool: protein stability index of TGVPNPSVAVMC >= 0.3
Solution: t

Problem: Does the reported protein stability index for WRVRFRLLAGFC fall at or above the 0.3 mark?
Solution: f

Problem: Is reported protein stability index greater than or equal to 0.3 here: FFSGSVFMAVSL
Solution: t

Problem: Confirm if protein stability index reported for the sequence FSFSCFFFVLFV is 0.3 or above.
Solution: f

Problem: Is the recorded value of protein stability index equal to or greater than 0.3 for this sequence? MLTYVVRSLVGY
Solution: t

Problem: Is it the case that VWSWFVIYFFFC has protein stability index reaching or exceeding 0.3?
Solution: t

Problem: Entry RLFVRIQLSLLF : is its protein stability index no less than 0.3?
Solution: f

Problem: Hi, just wondering whether SEVMVGLRLTLN shows protein stability index of 0.3 or higher.
Solution: t

Problem: Does the reported protein stability index for IIGCIAICLMVN fall at or above the 0.3 mark?
Solution: f

Problem: Evaluate VSLCVVYGLVVG : protein stability index at minimum 0.3?
Solution: f

Problem: Determine whether this sequence has protein stability index no lower than 0.3: PLPSRLRRFVPV
Solution: t

----------
test system: Saccharomyces cerevisiae; assay: protein stability index of tFT-peptide fusion (C-terminal peptide) (PSI (0-1 scale)); higher = more stable (slower turnover); conditions: genetic background: das1 deletion; temperature: 37 C
Test readout: protein stability index
Respond using a number only.

Short answer for TTGLLPSAYIWS : protein stability index was 0.768

For record FLCLLFYLSFFS the listed protein stability index is 0.572

Entry LVLALTPFLHSF — recorded protein stability index = 0.727

So for CMPVYYTVVIRL , the logged protein stability index turned out to be 0.294

Measured protein stability index of FLPHLMCVFSFC : 0.522

get_value(item= PSPRRPPRSRFP , readout=protein stability index) returns 0.736

VSLIFCLFFLSC yielded protein stability index of 0.52

// field: protein stability index; key: MWFVGLCLHFFM ; value = 0.546

protein stability index reading for DFRGVSVIRHQV : 0.737

Sample LPPFRFSLPFRR ; protein stability index observed: 0.705

Looking up KRRKERIKIQQI , I found its protein stability index recorded as 0.737

The sequence listed as VFFFFSLVNFRV has a reported protein stability index of 0.606

Lab note: measured protein stability index of AITHVILLVTPL was 0.61

// sample QVVWAVPRICLV , its protein stability index was 0.579

Recorded result, FIRLFLVSFFIS , protein stability index: 0.567

The measured protein stability index associated with WYMYVRMASFLV reads 0.603

The sequence listed as RVFLVLFLILSG shows protein stability index equal to 0.469

For reference, reported protein stability index for VFFLFLVFLTVV stands at 0.324

Per the records, this sequence ( FLGVFFYFLLCV ) has protein stability index equal to 0.359

----------
tested on: Saccharomyces cerevisiae; assay: protein stability index of tFT-peptide fusion (C-terminal peptide) (PSI (0-1 scale)); higher = more stable (slower turnover); details: genetic background: wild type; temperature: 30 C
Provide the recorded protein stability index for the entries that follow.
Lab note: jot the number down without any unit.

Reported protein stability index for SAFLPPLSPFSP was 0.753

According to the records, this sequence WHFTPPPPPTSP displays protein stability index of 0.715

// recorded protein stability index for NFIKCASDIRID : 0.67

Record summary for PPPPPPPLPLPP : reported protein stability index = 0.64

Measured protein stability index of LCHILAIIRRGA : 0.509

// ARGARTCDLIRW : protein stability index value = 0.717

So for LRSCLSIYDCSS , the logged protein stability index turned out to be 0.618

The reported protein stability index of the sequence PPTHDSPVWSPS was 0.743

// WVLGGSWLRCRK : protein stability index value = 0.726

Notebook: PPRLPPLPSSLL , protein stability index read as 0.721

----------
test system: Saccharomyces cerevisiae; assay: protein stability index of tFT-peptide fusion (C-terminal peptide) (PSI (0-1 scale)); higher = more stable (slower turnover); conditions: genetic background: wild type; temperature: 30 C
Is protein stability index at least 0.7? Then yes (1). If not, no (0).

Problem: # check: protein stability index of FSSYDLISFVLV is greater than or equal to 0.7
Solution: no (0)

Problem: Given NGCVRNVSSLVF , state whether its protein stability index is at least 0.7.
Solution: no (0)

Problem: Form field: protein stability index at least 0.7? Entry: SFRPPPPSSFPA
Solution: yes (1)

Problem: Reported protein stability index reaches at least 0.7 for GIDARGLYGGAL ?
Solution: no (0)

Problem: Please check the record PSPSPSPPLPPP and state if its protein stability index is at or above 0.7.
Solution: no (0)

Problem: Could you verify whether the entry TQVGTLANASGP shows protein stability index of no less than 0.7?
Solution: no (0)

Problem: Answer whether protein stability index of CVLRTSQPSCPG is greater than or equal to 0.7.
Solution: no (0)

Problem: Could you please find out whether VHFECFLVPFLL has protein stability index that meets 0.7 or exceeds it?
Solution: no (0)

Problem: Does CTTSCARWVTTW have a reported protein stability index of at least 0.7?
Solution: no (0)

Problem: Confirm if protein stability index reported for the sequence KNKMGRKYTLPH is 0.7 or above.
Solution: no (0)

Problem: Please check the record VGVGRRGGVGEG and state if its protein stability index is at or above 0.7.
Solution: no (0)

Problem: Decide: protein stability index of PVCLHPPPSHTH >= 0.7?
Solution: yes (1)

Problem: protein stability index >= 0.7 for TPHPPAAPPPPL ?
Solution: yes (1)

Problem: # check: protein stability index of LSARIGEMVDTW is greater than or equal to 0.7
Solution: no (0)

Problem: Reported protein stability index reaches at least 0.7 for PPPQPPPRHSPP ?
Solution: no (0)

Problem: Threshold query (protein stability index >= 0.7) on LPPPPSFTSPHL
Solution: yes (1)

Problem: I'd appreciate it if you could say whether IFIVINGHFAGS has protein stability index at least equal to 0.7.
Solution: no (0)

Problem: Determine whether this sequence has protein stability index no lower than 0.7: WWEFSCGFVVGG
Solution: no (0)

Problem: Given the entry VVFWFPFVLRCC , answer whether its protein stability index meets or surpasses 0.7.
Solution: no (0)

Problem: Could you verify whether the entry KAKCRNRQDEVI shows protein stability index of no less than 0.7?
Solution: yes (1)

Problem: Test whether the sequence RNFSFTVICLAM records protein stability index of 0.7 or higher.
Solution: no (0)

Problem: protein stability index >= 0.7 for TLVPPPSPPPSP ?
Solution: no (0)

Problem: # bool: protein stability index of YSIAYGVLWRYR >= 0.7
Solution: no (0)

Problem: Confirm if protein stability index reported for the sequence GPWAGVRAEVKA is 0.7 or above.
Solution: no (0)

Problem: Answer whether protein stability index of PRAPPLPPSPSP is greater than or equal to 0.7.
Solution: no (0)

Problem: Has KSVPLCSLGTTG a recorded protein stability index greater than or equal to 0.7?
Solution: no (0)

Problem: Could you verify whether the entry PPSLRPSSSPPI shows protein stability index of no less than 0.7?
Solution: yes (1)

Problem: hey, is protein stability index for this one >= 0.7? CIFWGSGWDTLV
Solution: yes (1)

Problem: I'd appreciate it if you could say whether ESASSLNFTSLM has protein stability index at least equal to 0.7.
Solution: yes (1)

Problem: Has AVGCLGKSRATL a recorded protein stability index greater than or equal to 0.7?
Solution: no (0)

Problem: Does YGSYVVNSLYLS have a reported protein stability index of at least 0.7?
Solution: no (0)

Problem: Does the sequence RNIRGDYKGRRL have recorded protein stability index that is 0.7 or more?
Solution: no (0)

Problem: Would you say KSVMVLRLLELK shows protein stability index at minimum 0.7?
Solution: no (0)

Problem: For this sequence, is measured protein stability index 0.7 or higher? PLPSHPPRPLPP
Solution: no (0)

Problem: Please check the record FPFFFLSILSAV and state if its protein stability index is at or above 0.7.
Solution: no (0)

Problem: Form field: protein stability index at least 0.7? Entry: GALVLWTGCTYS
Solution: yes (1)

Problem: Given the entry RDGRNSKPTYQP , answer whether its protein stability index meets or surpasses 0.7.
Solution: no (0)

Problem: I'd appreciate it if you could say whether PLPLPLASSFPS has protein stability index at least equal to 0.7.
Solution: no (0)

Problem: Please indicate if the recorded protein stability index for VFFLFLVFLTVV meets or exceeds 0.7.
Solution: no (0)

Problem: # check: protein stability index of YEYPRVTFSPQT is greater than or equal to 0.7
Solution: yes (1)

Problem: Hello, I need to know if VRPFTLLSSYSV has measured protein stability index not below 0.7. Thanks!
Solution: no (0)

Problem: In plain terms: is recorded protein stability index at least 0.7 for GHAYKYVDSFRR ?
Solution: no (0)

Problem: Is protein stability index for RGLVIWRVGGMK at or above 0.7?
Solution: no (0)

Problem: Dear colleague, could you confirm whether KPQAGPSRHPPS has protein stability index at or above 0.7?
Solution: yes (1)

Problem: Is it the case that TPSNTRPTLHIP has protein stability index reaching or exceeding 0.7?
Solution: no (0)

Problem: Hi, just wondering whether VCCSQWPLGFSV shows protein stability index of 0.7 or higher.
Solution: yes (1)

Problem: Quick check, protein stability index >= 0.7? KKQEKKKNKNDR
Solution: no (0)

Problem: Could you verify whether the entry FRISWLRVKGRG shows protein stability index of no less than 0.7?
Solution: no (0)

Problem: Decide: is the reported value of protein stability index for YLTCTLLSQPIY equal to or greater than 0.7?
Solution: no (0)

Problem: Does DGCLTKPGQCHG have a reported protein stability index of at least 0.7?
Solution: no (0)

Problem: Hi, just wondering whether RRAGRGGIGKGG shows protein stability index of 0.7 or higher.
Solution: no (0)

Problem: Does protein stability index meet or surpass 0.7 for ALSFFGSCCLPF ?
Solution: yes (1)

Problem: Hi team, for FHMPRSSPFLTG , is the recorded protein stability index at or above 0.7?
Solution: yes (1)

Problem: Does the sequence PRGAVGSRPAGR have recorded protein stability index that is 0.7 or more?
Solution: no (0)

Problem: Would you say PLPPPPPLLPTC shows protein stability index at minimum 0.7?
Solution: no (0)

Problem: Entry PPSVTLSEMTTG : is its protein stability index no less than 0.7?
Solution: no (0)

Attribution: the supplement of paper PMC10724198
